Target: XBP1 (Homo sapiens)
Construct: made in house
Sequence (P17861 70-133 limits assumed): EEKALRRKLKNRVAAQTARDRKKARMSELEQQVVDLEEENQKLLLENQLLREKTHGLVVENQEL
Test: Direct-binding FRET assay
Conditions: 37°C; C-terminal rhodamine design; mean or single; read-out: Kd
Description: The direct binding assay was performed manually in 384-well plates and is similar to a previously described assay. Wells were filled with 20 μL of 1 mM TCEP-HCl. […] Briefly, the Kd of the designed peptide homodimer was experimentally determined and used with previously determined target homodimer Kd values to determine the heterodimer Kd. […] A minimum 15% change in the donor fluorescence upon titrating the acceptor peptide from 0 to 1000 nM was required for a fit to be attempted. […]
Where no end group is shown, it is not given here.
Consider the following sequences and their measured Kd readings.

residue_sequence: AETDQLENRVKDLKKKNESLKEEKRQASNKYKALLTNNRSLKVKA [XBP1-d2]
Kd: ≥ 5000 nM
--
residue_sequence: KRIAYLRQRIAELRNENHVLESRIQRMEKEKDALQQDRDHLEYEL [ATF5-d1]
Kd: > 1000 nM

----------
Target: ATF4 (Homo sapiens)
Construct: made in house
Sequence (P18848 278-341 limits assumed): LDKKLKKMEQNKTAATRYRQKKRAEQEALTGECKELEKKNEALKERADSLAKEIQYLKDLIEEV
Assay: Direct-binding FRET assay
Settings: 23°C; N-terminal rhodamine design; repeat 1; read-out: Kd
pKd: −log10 of the molar value. Where no end group is shown, it is not given here.

residue_sequence: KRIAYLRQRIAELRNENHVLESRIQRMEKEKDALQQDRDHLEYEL [ATF5-d1]
measurement_target: ATF4 (Homo sapiens)
pKd: < 5.30

----------
Biological target: NFE2L2 (Homo sapiens, UniProt Q16236)
Construct: made in house
Sequence (Q16236 497-560 limits assumed): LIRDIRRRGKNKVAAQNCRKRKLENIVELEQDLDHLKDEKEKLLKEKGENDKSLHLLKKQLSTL
Assay: Direct-binding FRET assay
Settings: Kd, 23°C; C-terminal fluorescein design as donor, TAMRA target titrated
pKd: −log10 of the molar value. Where no end group is shown, it is not given here.

residue_sequence: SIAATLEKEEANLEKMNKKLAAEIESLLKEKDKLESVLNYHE [JUN-d1]
pKd: < 6.00

----------
Target: DBP (Homo sapiens, UniProt Q10586)
Construct: made in house
Sequence (Q10586 255-318 limits assumed): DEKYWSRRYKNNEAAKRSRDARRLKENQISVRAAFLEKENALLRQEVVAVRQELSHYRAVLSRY
Assay: Direct-binding FRET assay
Conditions: Kd, 37°C; C-terminal fluorescein design as donor, TAMRA target titrated
Where no end group is shown, it is not given here.

residue_sequence: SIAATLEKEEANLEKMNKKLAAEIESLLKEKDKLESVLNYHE [JUN-d1]
measurement_target: DBP (Homo sapiens, UniProt Q10586)
Kd: > 1000 nM

----------
Target: MAFF (Homo sapiens, UniProt Q9ULX9)
Construct: made in house
Sequence (Q9ULX9 51-114 limits assumed): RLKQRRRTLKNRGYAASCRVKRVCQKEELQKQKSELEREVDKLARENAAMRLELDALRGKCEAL
Experiment: Direct-binding FRET assay
Settings: 4°C; N-terminal rhodamine design; mean or single; read-out: Kd
Where no end group is shown, it is not given here.
// reported Kd for each item listed

residue_sequence: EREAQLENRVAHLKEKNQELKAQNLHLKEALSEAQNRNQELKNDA [XBP1-d1]
Kd: > 1000 nM

residue_sequence: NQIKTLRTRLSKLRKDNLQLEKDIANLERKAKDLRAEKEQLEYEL [ATF4-d1]
Kd: < 200 nM

----------
Target: NFE2 (Homo sapiens)
Construct: made in house
Sequence (Q16621 266-329 limits assumed): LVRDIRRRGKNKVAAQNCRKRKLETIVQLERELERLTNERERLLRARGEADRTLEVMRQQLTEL
Assay: Direct-binding FRET assay
Settings: 37°C; N-terminal rhodamine design; mean or single; read-out: Kd
Where no end group is shown, it is not given here.

residue_sequence: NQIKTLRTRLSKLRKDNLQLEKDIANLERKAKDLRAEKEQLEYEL [ATF4-d1]
Kd: > 1000 nM
--
residue_sequence: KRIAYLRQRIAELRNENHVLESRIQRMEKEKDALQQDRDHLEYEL [ATF5-d1]
Kd: > 1000 nM
--
residue_sequence: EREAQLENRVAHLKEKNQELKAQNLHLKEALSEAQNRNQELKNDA [XBP1-d1]
Kd: > 1000 nM

----------
Target: NFIL3 (Homo sapiens, UniProt Q16649)
Construct: made in house
Sequence (Q16649 73-136 limits assumed): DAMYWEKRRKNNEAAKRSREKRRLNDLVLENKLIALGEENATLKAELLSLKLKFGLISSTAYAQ
Assay: Direct-binding FRET assay
Conditions: 23°C; C-terminal rhodamine design; repeat 1; read-out: Kd
pKd: −log10 of the molar value. Where no end group is shown, it is not given here.

residue_sequence: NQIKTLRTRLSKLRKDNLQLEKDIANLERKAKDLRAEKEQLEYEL [ATF4-d1]
measurement_target: NFIL3 (Homo sapiens, UniProt Q16649)
pKd: < 5.30

----------
Some sequences, each annotated with its measured Kd.
Biological target: NFE2L3 (Homo sapiens)
Construct: made in house
Sequence (Q9Y4A8 578-641 limits assumed): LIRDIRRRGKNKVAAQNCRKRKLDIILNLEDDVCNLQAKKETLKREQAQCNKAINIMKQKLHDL
Assay: Direct-binding FRET assay
Settings: 37°C; N-terminal rhodamine design; mean or single; read-out: Kd
Where no end group is shown, it is not given here.

residue_sequence: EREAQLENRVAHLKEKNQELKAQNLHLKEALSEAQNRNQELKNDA [XBP1-d1]
Kd: > 1 µM

residue_sequence: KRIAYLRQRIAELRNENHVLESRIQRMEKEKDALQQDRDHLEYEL [ATF5-d1]
Kd: > 1 µM

residue_sequence: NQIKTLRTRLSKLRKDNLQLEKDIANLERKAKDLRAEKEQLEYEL [ATF4-d1]
Kd: > 1 µM

----------
Molecular target: BACH2 (Homo sapiens)
Sequence (Q9BYV9 646-709 limits assumed): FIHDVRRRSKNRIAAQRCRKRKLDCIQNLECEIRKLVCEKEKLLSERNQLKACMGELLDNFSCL
Test: Direct-binding FRET assay
Parameters: made in house
Settings: 37°C; C-terminal rhodamine design; mean or single; read-out: Kd
Method: The direct binding assay was performed manually in 384-well plates and is similar to a previously described assay. Wells were filled with 20 μL of 1 mM TCEP-HCl. […] Briefly, the Kd of the designed peptide homodimer was experimentally determined and used with previously determined target homodimer Kd values to determine the heterodimer Kd. […] A minimum 15% change in the donor fluorescence upon titrating the acceptor peptide from 0 to 1000 nM was required for a fit to be attempted. […]
pKd: −log10 of the molar value. Where no end group is shown, it is not given here.
// values below are reported pKd

residue_sequence: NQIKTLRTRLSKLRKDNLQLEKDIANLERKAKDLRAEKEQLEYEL [ATF4-d1]
pKd: < 5.30

residue_sequence: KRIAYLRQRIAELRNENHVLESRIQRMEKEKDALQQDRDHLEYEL [ATF5-d1]
pKd: < 5.30

residue_sequence: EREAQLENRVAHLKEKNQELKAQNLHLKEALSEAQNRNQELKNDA [XBP1-d1]
pKd: < 6.00

----------
Target: NFIL3 (Homo sapiens, UniProt Q16649)
Construct: made in house
Test: Direct-binding FRET assay
Where no end group is shown, it is not given here.
observed_property: Kd

residue_sequence: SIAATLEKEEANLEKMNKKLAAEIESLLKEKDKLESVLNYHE [JUN-d1]
observed_property: Kd
experimental_result: > 1000 nM

----------
Target: MAFG (Homo sapiens)
Sequence (O15525 51-114 limits assumed): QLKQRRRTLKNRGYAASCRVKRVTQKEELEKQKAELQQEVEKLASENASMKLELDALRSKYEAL
Assay: Direct-binding FRET assay
Design: made in house
Settings: 4°C; C-terminal fluorescein design as donor, TAMRA target titrated; read-out: Kd
pKd: −log10 of the molar value. Where no end group is shown, it is not given here.

residue_sequence: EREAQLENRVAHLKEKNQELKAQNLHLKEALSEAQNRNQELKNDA [XBP1-d1]
pKd: < 6.00

----------
Biological target: NFE2L1 (Homo sapiens)
Sequence (Q14494 654-717 limits assumed): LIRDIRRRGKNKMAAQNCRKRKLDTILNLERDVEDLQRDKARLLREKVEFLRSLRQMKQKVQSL
Test: Direct-binding FRET assay
Parameters: made in house
Settings: 23°C; C-terminal fluorescein design as donor, TAMRA target titrated; read-out: Kd
Where no end group is shown, it is not given here.

residue_sequence: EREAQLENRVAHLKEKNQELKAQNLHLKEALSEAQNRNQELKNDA [XBP1-d1]
Kd: > 1000 nM

----------
Molecular target: ATF6 (Homo sapiens, UniProt P18850)
Sequence (P18850 306-369 limits assumed): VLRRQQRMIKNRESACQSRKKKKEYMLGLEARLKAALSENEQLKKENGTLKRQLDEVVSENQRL
Test: Direct-binding FRET assay
Parameters: made in house
Conditions: 23°C; C-terminal rhodamine design; mean or single; read-out: Kd
pKd: −log10 of the molar value. Where no end group is shown, it is not given here.

residue_sequence: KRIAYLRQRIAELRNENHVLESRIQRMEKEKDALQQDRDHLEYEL [ATF5-d1]
pKd: < 6.00
--
residue_sequence: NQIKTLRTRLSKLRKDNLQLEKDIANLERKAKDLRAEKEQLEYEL [ATF4-d1]
pKd: < 6.00

----------
Molecular target: NFE2L3 (Homo sapiens, UniProt Q9Y4A8)
Construct: made in house
Assay: Direct-binding FRET assay
Settings: 23°C; C-terminal rhodamine design; repeat 1
pKd: −log10 of the molar value. Where no end group is shown, it is not given here.

residue_sequence: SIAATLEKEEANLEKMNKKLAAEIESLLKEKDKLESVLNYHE [JUN-d1]
measurement_target: NFE2L3 (Homo sapiens, UniProt Q9Y4A8)
pKd: < 6.00
